Target: T1, mouse tissue factor pathway inhibitor (TFPI) (mouse, UniProt O54819 29-289, limits assumed)
T1 construct: bought; also called mTFPI; murine TFPI
T1 sequence (looked up): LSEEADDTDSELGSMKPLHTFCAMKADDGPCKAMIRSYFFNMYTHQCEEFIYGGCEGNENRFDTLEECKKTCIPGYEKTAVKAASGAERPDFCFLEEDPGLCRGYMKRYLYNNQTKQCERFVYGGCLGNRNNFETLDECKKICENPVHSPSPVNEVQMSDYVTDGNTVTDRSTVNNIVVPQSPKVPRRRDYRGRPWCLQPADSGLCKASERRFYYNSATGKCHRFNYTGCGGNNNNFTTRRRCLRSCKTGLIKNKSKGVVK
Test: competitive ELISA
quantity: variant/HC_K99L (ratio)
Your answer should be a plain number; it is taken to be in ratio.

Please review the following examples before continuing.
binder: 2A8 HC S35D+S55G+K99L/LC Y48F+D91L+V96W (Fab, V domains shown) VH: QVQLVESGGGLVQPGGSLRLSCAASGFTFRSYGMDWVRQAPGKGLEWVSSIRGSGSSTYYADSVKGRFTISRDNSKNTLYLQMNSLRAEDTAVYYCARLYRYWFDYWGQGTLVTVSS VL: DIELTQPPSVSVAPGQTARISCSGDNLRNYYAHWYQQKPGQAPVVVIFYDNNRPSGIPERFSGSNSGNTATLTISGTQAEDEADYYCQSWLDGVPWFGGGTKLTVLG
quantity: variant/HC_K99L
readoutUnits: ratio
numericValue: 18.2
//
binder: 2A8 HC S31V+I51D+R52S+S55R+K99V/LC Y48F+D91L+V96W (Fab, V domains shown) VH: QVQLVESGGGLVQPGGSLRLSCAASGFTFRVYGMSWVRQAPGKGLEWVSSDSGSRSSTYYADSVKGRFTISRDNSKNTLYLQMNSLRAEDTAVYYCARVYRYWFDYWGQGTLVTVSS VL: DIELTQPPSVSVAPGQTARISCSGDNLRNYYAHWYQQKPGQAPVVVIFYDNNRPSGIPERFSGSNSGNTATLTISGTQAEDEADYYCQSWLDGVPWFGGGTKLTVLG
quantity: variant/HC_K99L
readoutUnits: ratio
numericValue: 7.9

Incoming: Would you kindly share the measured variant/HC_K99L for 2A8 HC S35D+S55R+K99L/LC D1S+Y48F+N51V+D91W (Fab, V domains shown) VH: QVQLVESGGGLVQPGGSLRLSCAASGFTFRSYGMDWVRQAPGKGLEWVSSIRGSRSSTYYADSVKGRFTISRDNSKNTLYLQMNSLRAEDTAVYYCARLYRYWFDYWGQGTLVTVSS VL: SIELTQPPSVSVAPGQTARISCSGDNLRNYYAHWYQQKPGQAPVVVIFYDVNRPSGIPERFSGSNSGNTATLTISGTQAEDEADYYCQSWWDGVPVFGGGTKLTVLG ?
Outgoing: 22

Incoming: Would you kindly share the measured variant/HC_K99L for 2A8 HC S35D+K99L/LC Y48F+D91L+D92S+V96W (Fab, V domains shown) VH: QVQLVESGGGLVQPGGSLRLSCAASGFTFRSYGMDWVRQAPGKGLEWVSSIRGSSSSTYYADSVKGRFTISRDNSKNTLYLQMNSLRAEDTAVYYCARLYRYWFDYWGQGTLVTVSS VL: DIELTQPPSVSVAPGQTARISCSGDNLRNYYAHWYQQKPGQAPVVVIFYDNNRPSGIPERFSGSNSGNTATLTISGTQAEDEADYYCQSWLSGVPWFGGGTKLTVLG ?
Outgoing: 20.5
